Data credit: patent US11986532B2

Below, each of the compounds is paired with its reported Dmax value.
study_system: BCL6 (Homo sapiens)
Construct: endogenous in cells; host or cells: T47D breast cancer epithelial cells
assay_name: Immunofluorescence protocol for high content imaging of BCL6 (degradation) in T47D cells, 3 days compound treatment
Assay type: cell-based
test_parameters: T47D cells, 3 days compound treatment, read-out: Mean Dmax (%)** category
measurement_name: Dmax

>  <compound>
CNC(=O)COc1cc2cc(Nc3nc(N4CCN(CC5CCN(c6ccc(F)c7c6CN(C6CCC(=O)NC6=O)C7=O)CC5)CC4)ncc3Cl)ccc2n(C(C)C)c1=O (centres unmarked)

>  <measurement_name>
Dmax

>  <result>
50 to 70%

$$$$
>  <compound>
CNC(=O)COc1cc2cc(Nc3nc(N4CCC5(CCN(CC6CCN(c7cccc8c7CN(C7CCC(=O)NC7=O)C8=O)CC6)C5)C4)ncc3Cl)ccc2n(C(C)C)c1=O (centres unmarked)

>  <measurement_name>
Dmax

>  <result>
50 to 70%

$$$$
>  <compound>
CNC(=O)COc1cc2cc(Nc3nc(N4CCC(O[C@H]5CC[C@H](N(C)C6CN(c7ccc8c(c7)C(=O)N(C7CCC(=O)NC7=O)C8=O)C6)CC5)CC4)ncc3Cl)ccc2n(C(C)C)c1=O (some centres unmarked)

>  <measurement_name>
Dmax

>  <result>
50 to 70%

$$$$
>  <compound>
CNC(=O)COc1cc2cc(Nc3nc(N4CCC(CN5CCC6(CC5)CC(c5ccc7c(c5)C(=O)N(C5CCC(=O)NC5=O)C7=O)C6)CC4)ncc3Cl)ccc2n(C(C)C)c1=O (centres unmarked)

>  <measurement_name>
Dmax

>  <result>
50 to 70%

$$$$
>  <compound>
CNC(=O)COc1cc2cc(Nc3nc(N4CCC(OC5CN([C@H]6CC[C@@H](c7ccc8c(c7F)CN(C7CCC(=O)NC7=O)C8=O)CC6)C5)CC4)ncc3Cl)ccc2n(C(C)C)c1=O (some centres unmarked)

>  <measurement_name>
Dmax

>  <result>
≥ 70%

$$$$

----------
study_system: BCL6 (Homo sapiens)
Construct: endogenous in cells; host or cells: T47D breast cancer epithelial cells
assay_name: Immunofluorescence protocol for high content imaging of BCL6 (degradation) in T47D cells, 3 days compound treatment
Format: cell-based
test_parameters: T47D cells, 3 days compound treatment, read-out: Mean DC50 (nM)* category
// reported DC50 for each item listed
measurement_name: DC50

>  <compound>
CNC(=O)COc1cc2cc(Nc3nc(N4CCN(CC5C6CN(c7ccc8c(c7)C(=O)N(C7CCC(=O)NC7=O)C8=O)CC56)CC4)ncc3Cl)ccc2n(C(C)C)c1=O (centres unmarked)

>  <result>
< 10 nM

$$$$
>  <compound>
CNC(=O)COc1cc2cc(Nc3nc(N4CC5C(CN6CCN(c7cccc8c7C(=O)N(C7CCC(=O)NC7=O)C8=O)CC6)C5C4)ncc3Cl)ccc2n(C(C)C)c1=O (centres unmarked)

>  <result>
10 to 50 nM

$$$$
>  <compound>
CNC(=O)COc1cc2cc(Nc3nc(N4CCC(OC5CN([C@H]6CC[C@H](c7ccc8c(c7)CN(C7CCC(=O)NC7=O)C8=O)CC6)C5)CC4)ncc3Cl)ccc2n(C(C)C)c1=O (single isomer, unassigned)

>  <result>
< 10 nM

$$$$
>  <compound>
CNC(=O)COc1cc2cc(Nc3nc(N4CCN(C(=O)C5CCC6(CCN(c7ccc8c(c7)CN(C7CCC(=O)NC7=O)C8=O)C6)C5)CC4)ncc3Cl)ccc2n(C(C)C)c1=O (centres unmarked)

>  <result>
< 10 nM

$$$$
>  <compound>
CNC(=O)COc1cc2cc(Nc3nc(N4CCC5(CCN(CC6CCN(c7cccc8c7C(=O)N(C7CCC(=O)NC7=O)C8=O)CC6)C5)C4)ncc3Cl)ccc2n(C(C)C)c1=O (centres unmarked)

>  <result>
10 to 50 nM

$$$$

----------
study_system: BCL6 (Homo sapiens)
Construct: endogenous in cells; host or cells: T47D breast cancer epithelial cells
assay_name: Immunofluorescence protocol for high content imaging of BCL6 (degradation) in T47D cells, 3 days compound treatment
Format: cell-based
test_parameters: read-out: Mean DC50 (nM)* category
Procedure: Immunofluorescence Protocol for High Content Imaging of BCL6 T47D cells were seeded in 100 μl volume of RPMI1640-10% FBS in a 96-well black/clear bottom plates for adherent lines (Corning #3904). Day 1. T47D breast cancer epithelial cells were seeded at a density so that confluence is ˜70-90% at endpoint. Cells were seeded at 7K/0.1 ml/well the morning prior to the addition of exemplary bifunctional degradation compounds. Day 2. […] Plates were equilibrated to room temperature prior to reading. […]
The compounds listed here are annotated with their DC50.
measurement_name: DC50

>  <compound>
CNC(=O)COc1cc2cc(Nc3nc(N4CCC(O[C@H]5C[C@H](N6CCN(c7ccc8c(c7)C(=O)N(C7CCC(=O)NC7=O)C8=O)[C@H](C)C6)C5)CC4)ncc3Cl)ccc2n(C(C)C)c1=O (stereo partly shown) [Compound 387]

>  <study_system>
BCL6 (Homo sapiens)

>  <measurement_name>
DC50

>  <result>
< 10 nM

$$$$
>  <compound>
CNC(=O)COc1cc2cc(Nc3nc(N4CCC(O[C@H]5C[C@H](N6CCN(c7cc8c(cc7OC)C(=O)N(C7CCC(=O)NC7=O)C8=O)CC6)C5)CC4)ncc3Cl)ccc2n(C(C)C)c1=O (stereo partly shown) [Compound 423]

>  <study_system>
BCL6 (Homo sapiens)

>  <measurement_name>
DC50

>  <result>
< 10 nM

$$$$
>  <compound>
CNC(=O)COc1cc2cc(Nc3nc(N4CCC(O[C@H]5C[C@H](N6CCCC7(CCN(c8ccc9c(c8)C(=O)N(C8CCC(=O)NC8=O)C9=O)C7)C6)C5)CC4)ncc3Cl)ccc2n(C(C)C)c1=O (stereo partly shown) [Compound 355]

>  <study_system>
BCL6 (Homo sapiens)

>  <measurement_name>
DC50

>  <result>
< 10 nM

$$$$
>  <compound>
CNC(=O)COc1cc2cc(Nc3nc(N4CCC(O[C@H]5C[C@H](N6[C@@H](C)CN(c7ccc8c(c7)C(=O)N(C7CCC(=O)NC7=O)C8=O)C[C@@H]6C)C5)CC4)ncc3Cl)ccc2n(C(C)C)c1=O (stereo partly shown) [Compound 253]

>  <study_system>
BCL6 (Homo sapiens)

>  <measurement_name>
DC50

>  <result>
10 to 50 nM

$$$$
>  <compound>
CNC(=O)COc1cc2cc(Nc3nc(N4CCC(O[C@H]5C[C@H](N6CC7(CN(c8ccc9c(c8)CN(C8CCC(=O)NC8=O)C9=O)C7)C6)C5)CC4)ncc3Cl)ccc2n(C(C)C)c1=O (stereo partly shown) [Compound 353]

>  <study_system>
BCL6 (Homo sapiens)

>  <measurement_name>
DC50

>  <result>
< 10 nM

$$$$
>  <compound>
CNC(=O)COc1cc2cc(Nc3nc(N4CCC(O[C@H]5C[C@H](N6CCC(c7ccc8c(c7F)CN(C7CCC(=O)NC7=O)C8=O)CC6)C5)CC4)ncc3Cl)ccc2n(CC(C)C)c1=O (stereo partly shown) [Compound 425]

>  <study_system>
BCL6 (Homo sapiens)

>  <measurement_name>
DC50

>  <result>
< 10 nM

$$$$
>  <compound>
CNC(=O)COc1cc2cc(Nc3nc(N4CCC(O[C@H]5C[C@H](N6CCN(c7ccc8c(c7)C(=O)N(C7CCC(=O)NC7=O)C8=O)C[C@@H]6C)C5)CC4)ncc3Cl)ccc2n(C(C)C)c1=O (stereo partly shown) [Compound 261]

>  <study_system>
BCL6 (Homo sapiens)

>  <measurement_name>
DC50

>  <result>
10 to 50 nM

$$$$
>  <compound>
CNC(=O)COc1cc2cc(Nc3nc(N4CCC(N5CCC6(C5)CN(C5CCN(c7ccc8c(c7)C(=O)N(C7CCC(=O)NC7=O)C8=O)CC5)C6)CC4)ncc3Cl)ccc2n(C(C)C)c1=O (stereo not shown) [Compound 224]

>  <study_system>
BCL6 (Homo sapiens)

>  <measurement_name>
DC50

>  <result>
10 to 50 nM

$$$$
>  <compound>
CNC(=O)COc1cc2cc(Nc3nc(N4CCC(O[C@H]5C[C@H](N6CCC7(CCN(c8ccc9c(c8)C(=O)N(C8CCC(=O)NC8=O)C9=O)CC7)C6)C5)CC4)ncc3Cl)ccc2n(C(C)C)c1=O (stereo partly shown) [Compound 362]

>  <study_system>
BCL6 (Homo sapiens)

>  <measurement_name>
DC50

>  <result>
10 to 50 nM

$$$$
>  <compound>
CNC(=O)COc1cc2cc(Nc3nc(N4CCC(CN5CCC6(CC5)CC5(CN(c7ccc8c(c7)C(=O)N(C7CCC(=O)NC7=O)C8=O)C5)C6)CC4)ncc3Cl)ccc2n(C(C)C)c1=O (stereo not shown) [Compound 373]

>  <study_system>
BCL6 (Homo sapiens)

>  <measurement_name>
DC50

>  <result>
< 10 nM

$$$$
